Each recorded value in this set is attributed to paper PMC10486429.

The following molecules are listed with their measured Tumor-to-liver ratio values.
- Test system: KB tumor-bearing athymic nude mice
- Assay name: Biodistribution of 177Lu-RedFols in KB tumor-bearing mice
- Assay type: in vivo, mouse
- Applied conditions: 4 h p.i.
Give only the figure.

CN1c2c(nc(N)[nH]c2=O)NC[C@H]1CNc1ccc(C(=O)N[C@@H](CCC(=O)N[C@@H](CCCCNC(=O)CN2CCN(CC(=O)O)CCN(CC(=O)O)CCN(CC(=O)O)CC2)C(=O)N[C@@H](CCCCNC(=O)CCCCc2ccc(I)cc2)C(=O)O)C(=O)O)cc1 [[^177Lu]Lu-6R-RedFol-24, metal not drawn] = 18
CN1c2c(nc(N)[nH]c2=O)NC[C@H]1CNc1ccc(C(=O)N[C@@H](CCC(=O)N[C@@H](CCCCNC(=O)CN2CCN(CC(=O)O)CCN(CC(=O)O)CCN(CC(=O)O)CC2)C(=O)N[C@@H](CCCCNC(=O)c2ccc(CNC(=O)CCCCc3ccc(I)cc3)cc2)C(=O)O)C(=O)O)cc1 [[^177Lu]Lu-6R-RedFol-25, metal not drawn] = 14
CN1c2c(nc(N)[nH]c2=O)NC[C@H]1CNc1ccc(C(=O)N[C@@H](CCC(=O)N[C@@H](CCCCNC(=O)CN2CCN(CC(=O)O)CCN(CC(=O)O)CCN(CC(=O)O)CC2)C(=O)N[C@@H](CCCCNC(=O)c2ccc(CNC(=O)CCCc3ccc(I)cc3)cc2)C(=O)O)C(=O)O)cc1 [[^177Lu]Lu-6R-RedFol-3, metal not drawn] = 6.0
CN1c2c(nc(N)[nH]c2=O)NCC1CNc1ccc(C(=O)NC(CCC(=O)NC(CCCCNC(=O)CN2CCN(CC(=O)[O-])CCN(CC(=O)[O-])CCN(CC(=O)[O-])CC2)C(=O)NC(CCCCNC(=O)c2ccc(CNC(=O)CCCc3ccc(I)cc3)cc2)C(=O)O)C(=O)O)cc1.[177Lu+3] (stereo not drawn) [[^177Lu]Lu-6S-RedFol-3] = 6.5

Below: the item to evaluate.
Write down the reported Tumor-to-liver ratio of CN1c2c(nc(N)[nH]c2=O)NCC1CNc1ccc(C(=O)NC(CCC(=O)NC(CCCCNC(=O)CN2CCN(CC(=O)[O-])CCN(CC(=O)[O-])CCN(CC(=O)[O-])CC2)C(=O)NC(CCCCNC(=O)c2ccc(CNC(=O)CCCCc3ccc(I)cc3)cc2)C(=O)O)C(=O)O)cc1.[177Lu+3] (stereo not drawn) [[^177Lu]Lu-6S-RedFol-25] , test system: KB tumor-bearing athymic nude mice. 18

* * *

- Assay name: n-octanol/PBS distribution coefficient (shake-flask) of 177Lu-RedFols
- Format: physicochemical
- Applied conditions: n-octanol/PBS pH 7.4
Outcome measure: logD Values

Dear colleague, I am looking for the recorded logD Values of the following compound: CN1c2c(nc(N)[nH]c2=O)NCC1CNc1ccc(C(=O)NC(CCC(=O)NC(CCCCNC(=O)CN2CCN(CC(=O)[O-])CCN(CC(=O)[O-])CCN(CC(=O)[O-])CC2)C(=O)NC(CCCCNC(=O)c2ccc(CNC(=O)CCCCc3ccc(I)cc3)cc2)C(=O)O)C(=O)O)cc1.[177Lu+3] (stereo not drawn) [[^177Lu]Lu-6S-RedFol-25] −3.0 ± 0.1

* * *

- Test system: KB tumor-bearing athymic nude mice
- Assay name: Biodistribution of 177Lu-RedFols in KB tumor-bearing mice
- Type: in vivo, mouse
- Applied conditions: 1 h p.i.
Listing of entries alongside the reported Salivary glands, accumulated activity.
Reply numerically in % IA/g, unit not repeated.

Answered examples (2):
CN1c2c(nc(N)[nH]c2=O)NC[C@H]1CNc1ccc(C(=O)N[C@@H](CCC(=O)N[C@@H](CCCCNC(=O)CN2CCN(CC(=O)O)CCN(CC(=O)O)CCN(CC(=O)O)CC2)C(=O)N[C@@H](CCCCNC(=O)c2ccc(CNC(=O)CCCCc3ccc(I)cc3)cc2)C(=O)O)C(=O)O)cc1 [[^177Lu]Lu-6R-RedFol-25, metal not drawn] = 4.7
CN1c2c(nc(N)[nH]c2=O)NC[C@H]1CNc1ccc(C(=O)N[C@@H](CCC(=O)N[C@@H](CCCCNC(=O)CN2CCN(CC(=O)O)CCN(CC(=O)O)CCN(CC(=O)O)CC2)C(=O)N[C@@H](CCCCNC(=O)c2ccc(CNC(=O)CCCc3ccc(I)cc3)cc2)C(=O)O)C(=O)O)cc1 [[^177Lu]Lu-6R-RedFol-3, metal not drawn] = 5.2

Missing value: Salivary glands, accumulated activity, KB tumor-bearing athymic nude mice, entry CN1c2c(nc(N)[nH]c2=O)NC[C@H]1CNc1ccc(C(=O)N[C@@H](CCC(=O)N[C@@H](CCCCNC(=O)CN2CCN(CC(=O)O)CCN(CC(=O)O)CCN(CC(=O)O)CC2)C(=O)N[C@@H](CCCCNC(=O)CCCCc2ccc(I)cc2)C(=O)O)C(=O)O)cc1 [[^177Lu]Lu-6R-RedFol-24, metal not drawn] . Fill in? 6.4

Under KB tumor-bearing athymic nude mice: Salivary glands, accumulated activity value of CN1c2c(nc(N)[nH]c2=O)NCC1CNc1ccc(C(=O)NC(CCC(=O)NC(CCCCNC(=O)CN2CCN(CC(=O)[O-])CCN(CC(=O)[O-])CCN(CC(=O)[O-])CC2)C(=O)NC(CCCCNC(=O)c2ccc(CNC(=O)CCCc3ccc(I)cc3)cc2)C(=O)O)C(=O)O)cc1.[177Lu+3] (stereo not drawn) [[^177Lu]Lu-6S-RedFol-3] ? 4.1

Look up Salivary glands, accumulated activity with KB tumor-bearing athymic nude mice for this compound: CN1c2c(nc(N)[nH]c2=O)NCC1CNc1ccc(C(=O)NC(CCC(=O)NC(CCCCNC(=O)CN2CCN(CC(=O)[O-])CCN(CC(=O)[O-])CCN(CC(=O)[O-])CC2)C(=O)NC(CCCCNC(=O)c2ccc(CNC(=O)CCCCc3ccc(I)cc3)cc2)C(=O)O)C(=O)O)cc1.[177Lu+3] (stereo not drawn) [[^177Lu]Lu-6S-RedFol-25] 2.2

* * *

- Tested on: KB tumor-bearing athymic nude mice
- Assay name: Biodistribution of 177Lu-RedFols in KB tumor-bearing mice
- Format: in vivo, mouse
- Applied conditions: 24 h p.i.
Outcome measure: Tumor-to-kidney ratio
Provide a numeric answer; units are not to be included.

CN1c2c(nc(N)[nH]c2=O)NC[C@H]1CNc1ccc(C(=O)N[C@@H](CCC(=O)N[C@@H](CCCCNC(=O)CN2CCN(CC(=O)O)CCN(CC(=O)O)CCN(CC(=O)O)CC2)C(=O)N[C@@H](CCCCNC(=O)c2ccc(CNC(=O)CCCc3ccc(I)cc3)cc2)C(=O)O)C(=O)O)cc1 [[^177Lu]Lu-6R-RedFol-3, metal not drawn] = 3.3

What value of Tumor-to-kidney ratio has been reported for the following compound? CN1c2c(nc(N)[nH]c2=O)NCC1CNc1ccc(C(=O)NC(CCC(=O)NC(CCCCNC(=O)CN2CCN(CC(=O)[O-])CCN(CC(=O)[O-])CCN(CC(=O)[O-])CC2)C(=O)NC(CCCCNC(=O)c2ccc(CNC(=O)CCCc3ccc(I)cc3)cc2)C(=O)O)C(=O)O)cc1.[177Lu+3] (stereo not drawn) [[^177Lu]Lu-6S-RedFol-3] 1.3

I would be grateful if you could share the reported Tumor-to-kidney ratio for CN1c2c(nc(N)[nH]c2=O)NC[C@H]1CNc1ccc(C(=O)N[C@@H](CCC(=O)N[C@@H](CCCCNC(=O)CN2CCN(CC(=O)O)CCN(CC(=O)O)CCN(CC(=O)O)CC2)C(=O)N[C@@H](CCCCNC(=O)CCCCc2ccc(I)cc2)C(=O)O)C(=O)O)cc1 [[^177Lu]Lu-6R-RedFol-24, metal not drawn] . 0.54

Could you tell me which Tumor-to-kidney ratio is on file for CN1c2c(nc(N)[nH]c2=O)NC[C@H]1CNc1ccc(C(=O)N[C@@H](CCC(=O)N[C@@H](CCCCNC(=O)CN2CCN(CC(=O)O)CCN(CC(=O)O)CCN(CC(=O)O)CC2)C(=O)N[C@@H](CCCCNC(=O)c2ccc(CNC(=O)CCCCc3ccc(I)cc3)cc2)C(=O)O)C(=O)O)cc1 [[^177Lu]Lu-6R-RedFol-25, metal not drawn] ? 0.72

What value of Tumor-to-kidney ratio has been reported for the following compound? CN1c2c(nc(N)[nH]c2=O)NCC1CNc1ccc(C(=O)NC(CCC(=O)NC(CCCCNC(=O)CN2CCN(CC(=O)[O-])CCN(CC(=O)[O-])CCN(CC(=O)[O-])CC2)C(=O)NC(CCCCNC(=O)c2ccc(CNC(=O)CCCCc3ccc(I)cc3)cc2)C(=O)O)C(=O)O)cc1.[177Lu+3] (stereo not drawn) [[^177Lu]Lu-6S-RedFol-25] 0.31

* * *

- Target under test: folate receptor (FR) (Homo sapiens)
- Construct: endogenous in cells; host or cells: IGROV-1 (human ovarian carcinoma cell line), intact cells on ice
- Sequence (P15328 25-257): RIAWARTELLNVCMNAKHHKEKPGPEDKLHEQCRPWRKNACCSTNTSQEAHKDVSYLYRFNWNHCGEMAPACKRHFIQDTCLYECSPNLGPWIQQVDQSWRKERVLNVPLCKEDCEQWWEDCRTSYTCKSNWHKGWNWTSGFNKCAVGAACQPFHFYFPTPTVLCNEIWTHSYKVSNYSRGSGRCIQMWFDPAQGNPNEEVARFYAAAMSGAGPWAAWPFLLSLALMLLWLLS
- Assay name: FR-binding affinity (KD) of 177Lu-RedFols on IGROV-1 cells
- Applied conditions: 1 h at 4 °C, read-out: KD Value (95% CI)
Outcome measure: Kd (nM)
// note: answer is a bare numeric in nM

Example molecules with recorded Kd:
CN1c2c(nc(N)[nH]c2=O)NC[C@H]1CNc1ccc(C(=O)N[C@@H](CCC(=O)N[C@@H](CCCCNC(=O)CN2CCN(CC(=O)O)CCN(CC(=O)O)CCN(CC(=O)O)CC2)C(=O)N[C@@H](CCCCNC(=O)c2ccc(CNC(=O)CCCc3ccc(I)cc3)cc2)C(=O)O)C(=O)O)cc1 [[^177Lu]Lu-6R-RedFol-3, metal not drawn] = 4.7
CN1c2c(nc(N)[nH]c2=O)NCC1CNc1ccc(C(=O)NC(CCC(=O)NC(CCCCNC(=O)CN2CCN(CC(=O)[O-])CCN(CC(=O)[O-])CCN(CC(=O)[O-])CC2)C(=O)NC(CCCCNC(=O)c2ccc(CNC(=O)CCCc3ccc(I)cc3)cc2)C(=O)O)C(=O)O)cc1.[177Lu+3] (stereo not drawn) [[^177Lu]Lu-6S-RedFol-3] = 2.8

// lookup Kd for CN1c2c(nc(N)[nH]c2=O)NC[C@H]1CNc1ccc(C(=O)N[C@@H](CCC(=O)N[C@@H](CCCCNC(=O)CN2CCN(CC(=O)O)CCN(CC(=O)O)CCN(CC(=O)O)CC2)C(=O)N[C@@H](CCCCNC(=O)c2ccc(CNC(=O)CCCCc3ccc(I)cc3)cc2)C(=O)O)C(=O)O)cc1 [[^177Lu]Lu-6R-RedFol-25, metal not drawn] 3.6

# lookup: Kd of CN1c2c(nc(N)[nH]c2=O)NC[C@H]1CNc1ccc(C(=O)N[C@@H](CCC(=O)N[C@@H](CCCCNC(=O)CN2CCN(CC(=O)O)CCN(CC(=O)O)CCN(CC(=O)O)CC2)C(=O)N[C@@H](CCCCNC(=O)CCCCc2ccc(I)cc2)C(=O)O)C(=O)O)cc1 [[^177Lu]Lu-6R-RedFol-24, metal not drawn] 4.7

Would you kindly share the measured Kd for CN1c2c(nc(N)[nH]c2=O)NCC1CNc1ccc(C(=O)NC(CCC(=O)NC(CCCCNC(=O)CN2CCN(CC(=O)[O-])CCN(CC(=O)[O-])CCN(CC(=O)[O-])CC2)C(=O)NC(CCCCNC(=O)c2ccc(CNC(=O)CCCCc3ccc(I)cc3)cc2)C(=O)O)C(=O)O)cc1.[177Lu+3] (stereo not drawn) [[^177Lu]Lu-6S-RedFol-25] ? 2.2
